- test-protocol: Solubility in 50 mM phosphate buffer at pH 7.4
- Type: physicochemical
- test-settings: aqueous buffer
Below, each entry is listed alongside its reported solubility.
Report only the number, with the unit µM understood.

[[record]]
molecule = "CCCC(CN)COc1cnc(C#CC(C)(C)O)c2nc(-c3nonc3N)n(CC)c12 (centres unmarked)"
measurement_type = "solubility"
unit_annotation = "µM"
reported = 203

[[record]]
molecule = "CCCCC(CN)COc1cnc(C#CC(C)(C)O)c2nc(-c3nonc3N)n(CC)c12 (centres unmarked)"
measurement_type = "solubility"
unit_annotation = "µM"
reported = 108

[[record]]
molecule = "CCn1c(-c2nonc2N)nc2c(C#CC(C)(C)O)ncc(OCCCNC3CCCC3)c21"
measurement_type = "solubility"
unit_annotation = "µM"
reported = 210


// next item, solubility requested
# solubility (molecule: CCCC(CCN)Oc1cnc(C#CC(C)(C)O)c2nc(-c3nonc3N)n(CC)c12 (centres unmarked) ) is 179

----------
- test-protocol: Solubility in 50 mM phosphate buffer at pH 7.4
- Type: physicochemical
- test-settings: aqueous buffer
The entries below are paired with their reported solubility.
# answer = value followed by unit

Worked cases, solubility given:
[[record]]
compound = "CCn1c(-c2nonc2N)nc2c(C#CC(C)(C)O)ncc(OCC(CN)CC(C)C)c21 (stereo not shown)"
reported = "164 µM"

[[record]]
compound = "CCn1c(-c2nonc2N)nc2c(C#CC(C)(C)O)ncc(OCCCNCC3CC3)c21"
reported = "140 µM"

[[record]]
compound = "CCn1c(-c2nonc2N)nc2c(C#CC(C)(C)O)ncc(OCC(C)(C)CN)c21"
reported = "209 µM"


# solubility (compound: `CCn1c(-c2nonc2N)nc2c(C#CC(C)(C)O)ncc(OC[C@@H](C)CN)c21` ) is 141 µM

----------
- System: BT474 (human breast carcinoma)
- test-protocol: Methylene Blue Growth Inhibition Assay
- Format: cell-based
- test-settings: BT-474, 72 h, BT474, 3 days
Threshold check on IC50: strictly below 0.4 µM is True; on or above 0.4 µM is False.

Here are 3 compounds together with their reported answers.
[[record]]
compound = "CCn1c(-c2nonc2N)nc2c(C#CC(C)(C)O)ncc(OCC(C)(C)CN)c21"
assigned_class = "True"

[[record]]
compound = "CCn1c(-c2nonc2N)nc2c(C#CC(C)(C)O)ncc(OCC(F)CN)c21 (single isomer, unassigned)"
assigned_class = "True"

[[record]]
compound = "CCn1c(-c2nonc2N)nc2c(C#CC(C)(C)O)ncc(OCCCN3CCCC3)c21"
assigned_class = "False"


Input: Take the compound CCCC(CN)COc1cnc(C#CC(C)(C)O)c2nc(-c3nonc3N)n(CC)c12 (stereo not drawn) and say whether its IC50 is less than 0.4 µM.
Output: True

Input: Does `CCn1c(-c2nonc2N)nc2c(C#CC(C)(C)O)ncc(OC[C@@H](C)CN)c21` have IC50 strictly under 0.4 µM?
Output: True

Input: Is the reported IC50 for CCn1c(-c2nonc2N)nc2c(C#CC(C)(C)O)ncc(OCCC(N)C3CCSCC3)c21 (single isomer, unassigned; (-)) strictly below 0.4 µM?
Output: True

Input: # check: IC50 < 0.4 µM for `CCn1c(-c2nonc2N)nc2c(C#CC(C)(C)O)ncc(OCCCNCC3CC3)c21`
Output: True

Input: Answer whether the compound `CCn1c(-c2nonc2N)nc2c(C#CC(C)(C)O)ncc(OCCCNC3CCC3)c21` has IC50 strictly less than 0.4 µM
Output: False
